Origin of values: the supplement of paper PMC12783771

B1: library; numbered along this chain (parent)
chain: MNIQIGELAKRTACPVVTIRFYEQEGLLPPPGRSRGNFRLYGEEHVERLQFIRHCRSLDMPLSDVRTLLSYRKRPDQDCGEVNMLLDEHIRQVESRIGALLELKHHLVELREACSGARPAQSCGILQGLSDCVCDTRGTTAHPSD

Variants of: B1
ASSAY INFO: sfGFP reporter fluorescence (15 h) (µM FITC); higher = stronger transcriptional activation
CONDITION DESCRIPTION: library round: Round 0; ligand: 1 µM Pb
Param threshold (0.07) applies to sfGFP reporter fluorescence; output class 1 when value >= threshold, class 0 when value < threshold.

MUT | CAT
P61H | class 1
C134G | class 1
I90N | class 0
Y41W | class 0
P61N D64K K104V G128I | class 1
L68T | class 0
L85C | class 0
M60L P61N D64K K104V G128I | class 1
I3N | class 0
R118A | class 0
P143C | class 1
C55P | class 0
M60L D64K L107C G128I | class 1
L126E | class 0
K104P | class 0
L110T | class 0
M60L D64K K104V L107C | class 1
K104H | class 1
D64K K104V L107C | class 1
C114K | class 0
L110I | class 0
H89Y | class 0
K104A | class 1
R111Q | class 0
V16R | class 1
G128L | class 1
I97Q | class 0
V46E | class 1
D131E | class 1
Y41L | class 0
M60G | class 0
L85A | class 0
